Exercise: state measured pIC50 for each of the molecules provided.
target: CDK2/Cyclin E complex (Homo sapiens); test: In vitro kinase assay, CDK2/Cyclin E complex; details: recombinant protein (Upstate); read-out: CDK2/cyclinE IC50
Reminder that pIC50 is minus the log10 of a molar concentration.

Query block: // returns reported pIC50 for input "CC(=O)Nc1cc(NCC(=O)Nc2nc3ccc4[nH]ncc4c3s2)ccc1Cl"
Result block: 7.43

Query block: // returns reported pIC50 for input "CC(C)(Nc1ccc(Cl)c(NC(=O)OCCO)c1)C(=O)Nc1nc2c(C(F)(F)F)cc3[nH]ncc3c2s1"
Result block: 6.65

Query block: // returns reported pIC50 for input CC(=O)Nc1cc(NC(C(=O)Nc2nc3ccc4[nH]ncc4c3s2)c2ccccc2)ccc1Cl (centres unmarked)
Result block: 6.56

Query block: // returns reported pIC50 for input "CNC(=O)Nc1cc(NC(C)(C)C(=O)Nc2nc3c(C(F)(F)F)cc4[nH]ncc4c3s2)ccc1Cl"
Result block: 6.80

Query block: // returns reported pIC50 for input "Nc1cccc(NCC(=O)Nc2nc3ccc4[nH]ncc4c3s2)c1"
Result block: 6.72

Query block: // returns reported pIC50 for input "CC(C)(Nc1cccc(NS(C)(=O)=O)c1)C(=O)Nc1nc2c(C(F)(F)F)cc3[nH]ncc3c2s1"
Result block: 6.77

Query block: // returns reported pIC50 for input "CCC(=O)Nc1cc(NC(C)(C)C(=O)Nc2nc3c(C(F)(F)F)cc4[nH]ncc4c3s2)ccc1Cl"
Result block: 6.41

Query block: // returns reported pIC50 for input "CC(C)(Nc1cccc(C(=O)NCC(=O)OCCO)c1)C(=O)Nc1nc2c(C(F)(F)F)cc3[nH]ncc3c2s1"
Result block: 6.56

Query block: // returns reported pIC50 for input "CS(=O)(=O)Nc1cccc(NCC(=O)Nc2nc3ccc4[nH]ncc4c3s2)c1"
Result block: 6.65

Query block: // returns reported pIC50 for input "CC(C)(Nc1ccc(Cl)c(C(=O)NC2CC2)c1)C(=O)Nc1nc2c(C(F)(F)F)cc3[nH]ncc3c2s1"
Result block: 6.88

Query block: // returns reported pIC50 for input "CNC(=O)c1cc(NC(C)(C)C(=O)Nc2nc3c(C(F)(F)F)cc4[nH]ncc4c3s2)ccc1Cl"
Result block: 7.36

Query block: // returns reported pIC50 for input "COc1ccc(NC(C)(C)C(=O)Nc2nc3ccc4[nH]ncc4c3s2)cc1"
Result block: 6.47

Query block: // returns reported pIC50 for input "CC(C)(Nc1ccc(Cl)c(C(=O)NCC(=O)O)c1)C(=O)Nc1nc2c(C(F)(F)F)cc3[nH]ncc3c2s1"
Result block: 6.71

Query block: // returns reported pIC50 for input "CCC(=O)Nc1cc(NC2(C(=O)Nc3nc4ccc5[nH]ncc5c4s3)CC2)ccc1F"
Result block: 6.96

Query block: // returns reported pIC50 for input "O=C(CNc1cccc(O)c1)Nc1nc2ccc3[nH]ncc3c2s1"
Result block: 7.09

Query block: // returns reported pIC50 for input "O=C(CNc1ccc(Cl)c(O)c1)Nc1nc2ccc3[nH]ncc3c2s1"
Result block: 7.59

Query block: // returns reported pIC50 for input CC(C)CC(Nc1cccc(O)c1)C(=O)Nc1nc2ccc3[nH]ncc3c2s1 (centres unmarked)
Result block: 6.44

Query block: // returns reported pIC50 for input "CC(C)(Nc1ccc(Cl)c(NC(=O)C2CC2)c1)C(=O)Nc1nc2c(C(F)(F)F)cc3[nH]ncc3c2s1"
Result block: 6.81

Query block: // returns reported pIC50 for input "O=C(Nc1nc2ccc3[nH]ncc3c2s1)C1(Nc2ccc(Cl)cc2)CC1"
Result block: 7.72

Query block: // returns reported pIC50 for input "COC(=O)Nc1cc(NC(C)(C)C(=O)Nc2nc3ccc4[nH]ncc4c3s2)ccc1Cl"
Result block: 6.36

Query block: // returns reported pIC50 for input "Cc1cc2[nH]ncc2c2sc(NC(=O)CNc3ccccc3)nc12"
Result block: 6.72

Query block: // returns reported pIC50 for input "CC(C)(Nc1ccc(Cl)c(C(=O)O)c1)C(=O)Nc1nc2c(C(F)(F)F)cc3[nH]ncc3c2s1"
Result block: 6.53

Query block: // returns reported pIC50 for input CC(C)(Nc1ccc(Cl)c(OCC(O)CO)c1)C(=O)Nc1nc2c(C(F)(F)F)cc3[nH]ncc3c2s1 (centres unmarked)
Result block: 7.70

Query block: // returns reported pIC50 for input "CCNC(=O)c1cc(NC(C)(C)C(=O)Nc2nc3c(C(F)(F)F)cc4[nH]ncc4c3s2)ccc1Cl"
Result block: 7.43

Query block: // returns reported pIC50 for input "COC(=O)c1cccc(NCC(=O)Nc2nc3ccc4[nH]ncc4c3s2)c1"
Result block: 6.47

Query block: // returns reported pIC50 for input "O=C(Nc1nc2ccc3[nH]ncc3c2s1)C1(Nc2ccc(Cl)cc2)CCC1"
Result block: 7.08

Query block: // returns reported pIC50 for input "CC(C)(Nc1ccc(Cl)c(C(=O)NCCCS(N)(=O)=O)c1)C(=O)Nc1nc2c(C(F)(F)F)cc3[nH]ncc3c2s1"
Result block: 7.12

Query block: // returns reported pIC50 for input "CCC(=O)Nc1cc(NC(C)(C)C(=O)Nc2nc3ccc4[nH]ncc4c3s2)ccc1Cl"
Result block: 7.07

Query block: // returns reported pIC50 for input "O=C(Nc1nc2ccc3[nH]ncc3c2s1)C1(Nc2cccc(O)c2)CC1"
Result block: 7.25

Query block: // returns reported pIC50 for input "O=C(Nc1nc2ccc3[nH]ncc3c2s1)C1(Nc2ccc(Cl)cc2)CCCC1"
Result block: 6.81

Query block: // returns reported pIC50 for input "CC(C)(Nc1ccc(F)cc1)C(=O)Nc1nc2c(C(F)(F)F)cc3[nH]ncc3c2s1"
Result block: 6.52

Query block: // returns reported pIC50 for input NC(=O)CC(Nc1cccc(O)c1)C(=O)Nc1nc2ccc3[nH]ncc3c2s1 (centres unmarked)
Result block: 7.25

---

Molecular target: CDK3/Cyclin E complex (Homo sapiens)
Sequence (Q00526 whole entry): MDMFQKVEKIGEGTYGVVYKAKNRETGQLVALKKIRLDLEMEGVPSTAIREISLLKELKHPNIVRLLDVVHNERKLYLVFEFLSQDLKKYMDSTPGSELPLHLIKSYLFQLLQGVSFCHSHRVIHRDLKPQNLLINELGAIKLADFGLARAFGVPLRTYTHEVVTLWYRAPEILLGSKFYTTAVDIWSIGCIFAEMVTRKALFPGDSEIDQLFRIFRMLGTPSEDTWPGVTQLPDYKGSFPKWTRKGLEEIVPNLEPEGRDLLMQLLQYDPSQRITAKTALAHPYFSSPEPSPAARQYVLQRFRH
Sequence (P24864 whole entry partner): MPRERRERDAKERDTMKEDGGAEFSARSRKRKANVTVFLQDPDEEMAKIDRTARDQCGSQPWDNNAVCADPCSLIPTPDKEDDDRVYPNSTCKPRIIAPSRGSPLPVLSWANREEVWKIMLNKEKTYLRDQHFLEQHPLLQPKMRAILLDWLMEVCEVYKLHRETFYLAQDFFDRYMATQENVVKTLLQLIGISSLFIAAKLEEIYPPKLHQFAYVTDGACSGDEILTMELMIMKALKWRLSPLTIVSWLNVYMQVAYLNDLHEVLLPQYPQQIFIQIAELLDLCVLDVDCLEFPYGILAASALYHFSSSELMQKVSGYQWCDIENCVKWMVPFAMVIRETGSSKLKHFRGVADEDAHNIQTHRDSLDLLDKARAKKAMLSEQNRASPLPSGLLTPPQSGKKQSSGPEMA
Assay: In vitro kinase assay, CDK3/Cyclin E complex
Settings: recombinant protein (Upstate); read-out: CDK3/cyclinE IC50
Experimental: Inhibitory activity against Aurora A, CDK1/Cyclin B complex, CDK2/Cyclin E complex and CDK3/Cyclin E complex were measured by in vitro kinase assay using recombinant proteins.
Test Readout: pIC50
Reminder that pIC50 is minus the log10 of a molar concentration.

Query block: // returns reported pIC50 for input "Cc1ccc(NC(C)(C)C(=O)Nc2nc3ccc4[nH]ncc4c3s2)cc1"
Result block: 6.44

Query block: // returns reported pIC50 for input "CC(=O)Nc1cc(NC2(C(=O)Nc3nc4ccc5[nH]ncc5c4s3)CC2)ccc1F"
Result block: 6.98

Query block: // returns reported pIC50 for input "CC(C)(Nc1ccc(Cl)c(NC(=O)C2CC2)c1)C(=O)Nc1nc2c(C(F)(F)F)cc3[nH]ncc3c2s1"
Result block: 6.78

Query block: // returns reported pIC50 for input "O=C(CNc1ccc(F)cc1)Nc1nc2ccc3[nH]ncc3c2s1"
Result block: 6.59

Query block: // returns reported pIC50 for input "CNC(=O)c1cc(NC(C)(C)C(=O)Nc2nc3c(C(F)(F)F)cc4[nH]ncc4c3s2)ccc1Cl"
Result block: 7.64

Query block: // returns reported pIC50 for input CC(C)(Nc1ccc(Cl)c(OCC(O)CO)c1)C(=O)Nc1nc2c(C(F)(F)F)cc3[nH]ncc3c2s1 (centres unmarked)
Result block: 8.06

Query block: // returns reported pIC50 for input "CCC(=O)Nc1cc(NC(C)(C)C(=O)Nc2nc3c(C(F)(F)F)cc4[nH]ncc4c3s2)ccc1F"
Result block: 6.91

Query block: // returns reported pIC50 for input "O=C(CNc1ccccc1)Nc1nc2c(C(F)(F)F)cc3[nH]ncc3c2s1"
Result block: 6.42

---

system: leukemia cell line KG-1a; assay: Cell proliferation inhibitory activity, KG-1a; type: cell-based; conditions: cells counted 4 days later with Cell Counting Kit-8
Test Readout: pIC50
Reminder that pIC50 is minus the log10 of a molar concentration.

Query block: What reported pIC50 corresponds to "O=C(CNc1ccccc1)Nc1nc2c(F)cc3[nH]ncc3c2s1" on leukemia cell line KG-1a?
Result block: 7.00

Query block: What reported pIC50 corresponds to "O=C(CNc1ccccc1)Nc1nc2ccc3[nH]nc(Cl)c3c2s1" on leukemia cell line KG-1a?
Result block: 6.52

Query block: What reported pIC50 corresponds to "COc1cccc(NC2(C(=O)Nc3nc4ccc5[nH]ncc5c4s3)CC2)c1" on leukemia cell line KG-1a?
Result block: 6.52

Query block: What reported pIC50 corresponds to COc1cccc(NC(CC(C)C)C(=O)Nc2nc3ccc4[nH]ncc4c3s2)c1 (stereo not shown) on leukemia cell line KG-1a?
Result block: 6.70

Query block: What reported pIC50 corresponds to "CN(C)C(=O)c1cc(NC2(C(=O)Nc3nc4ccc5[nH]ncc5c4s3)CC2)ccc1Cl" on leukemia cell line KG-1a?
Result block: 7.00
